# TARGET: Ret wt (Homo sapiens (Human))
# Sequence (P07949 29-1114): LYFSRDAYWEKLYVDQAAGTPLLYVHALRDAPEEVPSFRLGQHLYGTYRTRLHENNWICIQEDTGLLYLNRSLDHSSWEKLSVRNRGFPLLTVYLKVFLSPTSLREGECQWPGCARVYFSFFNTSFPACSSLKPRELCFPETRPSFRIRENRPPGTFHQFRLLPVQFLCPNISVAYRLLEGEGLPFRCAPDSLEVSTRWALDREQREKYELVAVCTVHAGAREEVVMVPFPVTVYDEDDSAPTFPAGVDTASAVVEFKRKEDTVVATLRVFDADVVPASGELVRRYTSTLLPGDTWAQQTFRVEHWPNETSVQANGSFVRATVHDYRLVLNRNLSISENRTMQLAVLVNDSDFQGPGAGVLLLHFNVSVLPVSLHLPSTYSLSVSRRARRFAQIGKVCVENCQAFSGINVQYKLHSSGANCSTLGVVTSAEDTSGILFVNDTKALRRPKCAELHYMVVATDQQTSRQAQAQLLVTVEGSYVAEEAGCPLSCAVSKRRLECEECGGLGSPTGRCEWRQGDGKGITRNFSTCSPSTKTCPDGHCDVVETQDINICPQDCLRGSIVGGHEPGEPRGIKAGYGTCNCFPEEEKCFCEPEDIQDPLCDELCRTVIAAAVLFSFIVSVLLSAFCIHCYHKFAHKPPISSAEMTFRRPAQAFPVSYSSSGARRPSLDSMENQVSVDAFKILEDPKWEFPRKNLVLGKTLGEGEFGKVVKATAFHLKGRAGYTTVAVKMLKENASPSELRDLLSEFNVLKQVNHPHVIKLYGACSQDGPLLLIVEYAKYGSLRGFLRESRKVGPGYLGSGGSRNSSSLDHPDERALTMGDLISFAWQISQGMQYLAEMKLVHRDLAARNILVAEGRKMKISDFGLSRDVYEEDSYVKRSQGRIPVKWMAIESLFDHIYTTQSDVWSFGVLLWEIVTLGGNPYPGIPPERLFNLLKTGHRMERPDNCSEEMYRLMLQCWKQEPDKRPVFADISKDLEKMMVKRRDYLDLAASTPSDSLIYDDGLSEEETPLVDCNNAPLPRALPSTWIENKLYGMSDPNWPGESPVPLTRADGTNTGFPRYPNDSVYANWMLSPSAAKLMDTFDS
# ASSAY REMARKS: HTRF kinase inhibition assay, Ret wt
# Format: biochemical
# RECORDED CONDITIONS: HTRF method
Each item that follows carries a reported IC50.
The reply should be a number in nM, with the unit left off.

Consider the worked cases shown below.
# IC50 (compound: Cn1cc(-c2cc(-c3ccc(N4CCN(CC#Cc5ccc(C(F)(F)F)cc5)CC4)nc3)c3c(C#N)cnn3c2)cn1 ) is 7.06

Recorded result, C#Cc1cc(F)c(C(=O)N2CCN(c3ccc(-c4cc(-c5cnn(C)c5)cn5ncc(C#N)c45)cn3)CC2)c(F)c1 , IC50: 4

Entry Cn1cc(-c2cc(-c3ccc(N4CC5CC(C4)N5CC#Cc4ccncc4)nc3)c3c(C#N)cnn3c2)cn1 — recorded IC50 = 0.65

Entry C#Cc1ccc(C(=O)N2C3CC2CN(c2ccc(-c4cc(-c5cnn(C)c5)cn5ncc(C#N)c45)cn2)C3)nc1 ; IC50 = 0.3

# IC50 of C#Cc1ccc(OC2CN(c3ccc(-c4cc(-c5cnn(C)c5)cn5ncc(C#N)c45)cn3)C2)cn1 = 0.13

The recorded IC50 for COc1ccnc(C#CCN2CCN(c3ccc(-c4cc(-c5cnn(C)c5)cn5ncc(C#N)c45)cn3)CC2)c1 is 0.25

***
Recorded result, C#Cc1ccc(O[C@H]2CCN(c3ccc(-c4cc(-c5cnn(C(F)F)c5)cn5ncc(C#N)c45)cn3)C2)cn1 , IC50: 1.63
